- System: GABA-A receptor
- testDetails: Cortical tissue homogenate study: radioactive chloride uptake into vesicles through the GABA-A receptor
- Type: biochemical, rat
- appliedConditions: doses of 3alpha-hydroxy-5alpha-pregnan-20-one: 1=0, 2=50, 3=100, 4=150, 5=200, 6=1000, 7=3000 nM; + 10 μM GABA + 30 μM steroid
valueKind: Within group change from 0 nM 3alpha-hydroxy-5alpha-pregnan-20-one

{"columns": ["compound", "reading"],
 "data": [
  ["C[C@H](O)[C@H]1CC[C@H]2[C@@H]3CC[C@@H]4C[C@@H](O)CC[C@]4(C)[C@H]3CC[C@]12C [UC1013, 3beta,20alpha-dihydroxy-5beta-pregnane]", "All dosages = NS"],
  ["CC(O)C1CCC2C3CCC4CC(O)CCC4(C)C3CCC12C (stereo not drawn) [UC1011, 3beta,20beta-dihydroxy-5alpha-pregnane]", "All dosages = NS"],
  ["C[C@]12CC[C@H](O)C[C@H]1CC[C@@H]1[C@@H]2CC[C@]2(C)[C@@H](C(=O)CO)CC[C@@H]12 [UC1015, 3beta,21-dihydroxy-5beta-pregnan-20-one]", "All dosages = NS"]
]}

###

- Test system: GABA-A receptor
- testDetails: Cortical tissue homogenate study: radioactive chloride uptake into vesicles through the GABA-A receptor
- Type: biochemical, rat
- appliedConditions: 10 μM GABA alone = 100%; 3alpha-hydroxy-5alpha-pregnan-20-one 0-3000 nM + 10 μM GABA + 30 μM interacting steroid; reference steroid tested without blocker
Reported Mean % (SEM) chloride uptake relative to only 10 uM GABA is given for each of the following molecules.

A selection of reference data follows.
{"columns": ["molecule", "reading"],
 "data": [
  ["CC(O)C1CCC2C3CCC4CC(O)CCC4(C)C3CCC12C (stereo not drawn) [UC1011, 3beta,20beta-dihydroxy-5alpha-pregnane]", "81.9(19) %"],
  ["CC(=O)[C@H]1CC[C@H]2[C@@H]3CC[C@H]4C[C@@H](O)CC[C@]4(C)[C@H]3CC[C@]12C [UC1010, 3beta-hydroxy-5alpha-pregnan-20-one]", "104.4(13) %"],
  ["CC(=O)[C@H]1CC[C@H]2[C@@H]3CC=C4C[C@@H](OS(=O)(=O)[O-])CC[C@]4(C)[C@H]3CC[C@]12C.[Na+] [UC1018]", "64.7(23) %"],
  ["CC(=O)[C@H]1CC[C@H]2[C@@H]3CC[C@@H]4C[C@@H](O)CC[C@]4(C)[C@H]3CC[C@]12C [UC1014, 3beta-hydroxy-5beta-pregnan 20-one]", "92.9(22) %"],
  ["C[C@]12CC[C@H](O)C[C@H]1CC[C@@H]1[C@@H]2CC[C@]2(C)[C@@H](C(=O)CO)CC[C@@H]12 [UC1015, 3beta,21-dihydroxy-5beta-pregnan-20-one]", "102.7(22) %"]
]}

(Q) Requested read-out: Mean % (SEM) chloride uptake relative to only 10 uM GABA. Entry: C[C@H](O)[C@H]1CC[C@H]2[C@@H]3CC[C@@H]4C[C@@H](O)CC[C@]4(C)[C@H]3CC[C@]12C [UC1013, 3beta,20alpha-dihydroxy-5beta-pregnane]
(A) 84.2(22) %
